biological target: Human immunodeficiency virus type 1 protease (Human immunodeficiency virus 1, UniProt Q72874); assay: Inhibition of wild type HIV1 protease
Ki by entry:

test_smiles: CC(C)(C)OC(=O)N[C@@H](Cc1ccccc1)[C@@H](O)CN[C@@H](Cc1ccccc1)C(=O)N[C@@H](CCC(N)=O)C(=O)N[C@@H](Cc1ccccc1)C(N)=O
Ki / nM: 33
--
test_smiles: CC(C)(C)OC(=O)N[C@@H](Cc1ccccc1)[C@@H](O)CN[C@@H](Cc1ccccc1)C(=O)N[C@@H](CCC(=O)O)C(=O)N[C@@H](Cc1ccccc1)C(N)=O
Ki / nM: 0.15
--
test_smiles: CC(C)(C)OC(=O)N[C@@H](Cc1ccccc1)[C@@H](O)C[C@@H](Cc1ccccc1)C(=O)N[C@@H](CCC(N)=O)C(=O)N[C@@H](Cc1ccccc1)C(N)=O
Ki / nM: 0.02
